- target under test: UniProtKB Q99436
recorded metric: IC50

| molecule | recorded metric | result |
| --- | --- | --- |
| Cc1cc(C)c2cc(C3=CCCCC3)c(C)nc2c1 [Compound 7, 3-Cyclohexenyl-2,5,7-trimethylquinoline] | IC50 | > 25 µM |

---

- target under test: UniProt P28072
recorded metric: IC50 (µM)

| chemical string | recorded metric | measure unit | quantitative result |
| --- | --- | --- | --- |
| Cc1nc2ccc(N3CCCCC3)cc2cc1C1=CCCCC1 | IC50 | µM | 10.9 |
